This listing pairs compounds with measured pIC50.
- ASSAYED SYSTEM: Glutamate [NMDA] receptor
- TEST DESCRIPTION: Tested for the inhibitory activity by the inhibition of excitatory L-[3H]Glutamate binding to NMDA recognition sites
- Type: protein-complex assay
pIC50 is a log-scale quantity: -log10 of the concentration expressed in molar.

INSERT INTO measurements (compound, quantity_name, reading) VALUES
  ('N[C@@H](C[C@@H]1CCCC[C@@H]1CCP(=O)(O)O)C(=O)O', 'pIC50', 5.19),
  ('O=C(O)[C@H]1CN(CCCP(=O)(O)O)CCN1', 'pIC50', 6.49),
  ('N[C@H](C[C@H]1CCCC[C@H]1CCP(=O)(O)O)C(=O)O', 'pIC50', 6.22),
  ('N[C@H](C[C@@H]1CCCC[C@@H]1CCP(=O)(O)O)C(=O)O', 'pIC50', 5.50),
  ('NC(CC1CCCCC1CCP(=O)(O)O)C(=O)O (configuration not stated)', 'pIC50', 5.80);

Record CC(=CC(N)C(=O)O)CP(=O)(O)O (configuration not stated) , field pIC50: 7.59

Record "N[C@@H](C[C@H]1CCCC[C@H]1CCP(=O)(O)O)C(=O)O" , field pIC50: 5.59

---

- TEST DESCRIPTION: Tested for the ability to inhibit the pentylenetetrazole induced seizures against NMDA antagonist by intraperitoneal administration
- Format: functional
- CONDITION DETAILS: ip
This listing pairs compounds with measured ED50.
Numeric answer only, unit mg/kg assumed.

Some entries whose results are on file:
INSERT INTO measurements (compound, reading) VALUES
  ('N[C@H](C[C@H]1CCCC[C@H]1CCP(=O)(O)O)C(=O)O', 4.51),
  ('O=C(O)[C@@H]1C[C@H](CP(=O)(O)O)CCN1 (single isomer, unassigned) [SELFOTEL]', 29);

Record NC(CC1CCCCC1CCP(=O)(O)O)C(=O)O (centres undefined) , field ED50: 6.02

---

- ASSAYED SYSTEM: Glutamate [NMDA] receptor
- TEST DESCRIPTION: Tested for the inhibitory activity by the inhibition of excitatory [3H]CGS-19,755 binding to NMDA recognition sites
- Assay type: protein-complex assay
pIC50: −log10 of the molar value.
Threshold check on pIC50: at or above 7 gives rule met, strictly below gives rule not met.

INSERT INTO assay_data (compound, label) VALUES
  ('N[C@@H](C[C@@H]1CCCC[C@@H]1CCP(=O)(O)O)C(=O)O', 'rule not met'),
  ('N[C@H](C[C@@H]1CCCC[C@@H]1CCP(=O)(O)O)C(=O)O', 'rule not met'),
  ('N[C@@H](C[C@H]1CCCC[C@H]1CCP(=O)(O)O)C(=O)O', 'rule not met'),
  ('CC(=CC(N)C(=O)O)CP(=O)(O)O (configuration not stated)', 'rule met');

Query :: Reported pIC50 reaches at least 7 for NC(CC1CCCCC1CCP(=O)(O)O)C(=O)O (configuration not stated) ?
Result :: rule not met
